Test details: Rotating disk electrode study of hydroxyl-substituted anthraquinones in NaOH
Format: physicochemical
Condition details: Hydroxy anthraquinones in NaOH
Measured quantity: E1/2(Volts) vs MMO (V)
Write the answer as a number in V, unit excluded.

Previously resolved entries follow.
O=C1c2cccc(O)c2C(=O)c2cccc(O)c21 [1,5-dihydroxy anthraquinone]: −0.65
O=C1c2ccccc2C(=O)c2c1cc(S(=O)(=O)O)c(O)c2O: −0.75
O=C1c2ccccc2C(=O)c2c1ccc(O)c2O [difference1,2-dihydroxy anthraquinone, 1,2-dihydroxy anthraquinone]: −0.73
O=C1c2ccccc2C(=O)c2c(O)ccc(O)c21 [1,4-dihydroxy anthraquinone]: −0.63
O=C1c2ccccc2C(=O)c2c(O)c(O)cc(O)c21 [1,2,4-trihydroxy anthraquinone]: −0.84

Output measured E1/2(Volts) vs MMO for this item: O=C1c2ccc(O)cc2C(=O)c2ccc(O)cc21 [2,6-dihydroxy anthraquinone]
−0.8

* * *

Test details: Rotating disk electrode study of hydroxyl-substituted anthraquinones in NaOH
Assay type: physicochemical
Condition details: Hydroxy anthraquinones in NaOH
Measured quantity: Di-Couple Potential (yes/no)

O=C1c2ccc(O)cc2C(=O)c2ccc(O)cc21 [2,6-dihydroxy anthraquinone]: No
O=C1c2ccccc2C(=O)c2c1cc(S(=O)(=O)O)c(O)c2O: Yes
O=C1c2cccc(O)c2C(=O)c2cccc(O)c21 [1,5-dihydroxy anthraquinone]: No
O=C1c2ccccc2C(=O)c2c(O)c(O)cc(O)c21 [1,2,4-trihydroxy anthraquinone]: Yes

Please report the measured Di-Couple Potential (yes/no) for O=C1c2ccccc2C(=O)c2c(O)ccc(O)c21 [1,4-dihydroxy anthraquinone]
Yes

Indicate the recorded Di-Couple Potential (yes/no) value for this compound: O=C1c2ccccc2C(=O)c2c1ccc(O)c2O [difference1,2-dihydroxy anthraquinone, 1,2-dihydroxy anthraquinone]
Yes

* * *

Test details: Rotating disk electrode study of hydroxyl-substituted anthraquinones in NaOH
Type: physicochemical
Condition details: Hydroxy anthraquinones in NaOH
Measured quantity: Di-Couple Potential difference

Examples from the recorded data:
O=C1c2ccccc2C(=O)c2c1ccc(O)c2O [difference1,2-dihydroxy anthraquinone, 1,2-dihydroxy anthraquinone]: 1 V
O=C1c2ccccc2C(=O)c2c1cc(S(=O)(=O)O)c(O)c2O: 930 mV
O=C1c2ccccc2C(=O)c2c(O)c(O)cc(O)c21 [1,2,4-trihydroxy anthraquinone]: 840 mV

Let me know recorded Di-Couple Potential difference for O=C1c2ccccc2C(=O)c2c(O)ccc(O)c21 [1,4-dihydroxy anthraquinone] , thanks.
880 mV

Recorded values, source patent US10833345B2.
